System: GM3
Test: GM3 Elisa assay
Assay type: cell-based
Conditions: Table 3 (IC 50 Values); B16-FO cells; read-out: IC50_uM_Mean
Protocol: B16-FO cells from ATCC (American Tissue Culture Collection) were grown in DMEM media (ATCC) with 10% Fetal Bovine Serum (Hyclone) and Pen/Step/Glutamine (Biowhittaker). […] The plates were washed 3 times with TBS, flicked and blotted and 100 μl of Quantablu (Pierce) was added to the wells and incubated for 1 hour then read on a Fluorometer at Ex 325 and Em 420. The data was then analyzed using standard programs.
pIC50: −log10 of the molar value.
Endpoint: pIC50

Guide cases for pIC50, answers given:
Documented pIC50 of `COc1ccc(S(=O)(=O)CCCCCC(=O)N[C@H](CN2CCCC2)[C@H](O)c2ccc3c(c2)OCCO3)cc1` : 6.00 to 7.00

The recorded pIC50 for CCCCNC[C@@H](NC(=O)CCCCCC(=O)c1ccc(OC)cc1)C(O)c1ccc2c(c1)OCCO2 (stereo partly shown) is 5.52 to 6.00

Summary for this compound, `COc1ccc(C(=O)CCCC(=O)N[C@H](CN2CC[C@@H](F)C2)[C@H](O)c2ccc(OC(C)C)cc2)cc1` : pIC50 is 6.00 to 7.00

Alright, here's another compound for you.
Documented pIC50 of `CCCCOc1ccc([C@@H](O)[C@@H](CN2CCCC2)NC(=O)CCCCC(=O)c2ccc(OC)cc2)cc1` : ≥ 7.00

###

Entries annotated with measured IC50
Test system: GM3
Assay: GM3 Elisa assay
Type: cell-based
Settings: Table 3 (IC 50 Values); B16-FO cells; read-out: IC50_uM_Mean

Some solved cases for reference:
get_value(item= `COc1ccc(C(=O)CCCCCC(=O)N[C@H](CN2C3CCC2CC3)[C@H](O)c2ccc3c(c2)OCCO3)cc1` , readout=IC50) returns ≤ 100 nM

Item: `COc1ccc(CCOc2ccc([C@@H](O)[C@@H](CN3CCCC3)NC(=O)CCCCC(=O)c3ccc(OC)cc3)cc2)cc1` | IC50: ≤ 100 nM

The recorded IC50 for `CCCCCCOc1ccc([C@@H](O)[C@@H](CN2CC[C@@H](F)C2)NC(=O)CCCOc2ccc(OC)cc2)cc1` is ≤ 100 nM

More entries:
Reported IC50 of `COc1ccc(C(=O)CCCCC(=O)N[C@H](CN2CCCC2)[C@H](O)/C=C/c2ccccc2)cc1` : 3000 to 10000 nM

###

Property: IC50; scope: individual molecules
Test system: GM3
Assay: GM3 Elisa assay
Assay type: cell-based
Conditions: Table 3 (IC 50 Values); B16-FO cells; read-out: IC50_uM_Mean

Solved entries:
Short answer for COc1ccc(OCCC(=O)N[C@H](CN2CCCC2)[C@H](O)c2ccc(C)c(F)c2)cc1 [Compound 349] : IC50 was 0.1 to 1 µM

The measured IC50 associated with CCCCCCCC(=O)N[C@H](CN1CCCC1)[C@H](O)c1ccc(OC)c(F)c1 [Compound 340] reads 0.1 to 1 µM

Next:
Looking up CCCCCCCCC(=O)N[C@H](CN1CCCC1)[C@H](O)c1ccc(OC)c(Cl)c1 [Compound 708] , I found its IC50 recorded as ≤ 0.1 µM

IC50 recorded for this molecule, CCCCOc1ccc([C@@H](O)[C@@H](CN2CC[C@H](O)C2)NC(=O)CCCCC(=O)C2CCCCC2)cc1 [Compound 587] , is 0.1 to 1 µM

Lab note: measured IC50 of O=C(Cc1ccc(OC(F)(F)F)cc1)N[C@H](CN1CCCC1)[C@H](O)/C=C/c1ccccc1 [Compound 392] was 3 to 10 µM

IC50 reported for this molecule O=C(CCCNC(=O)NC1CCCCC1)N[C@H](CN1CCCC1)[C@H](O)c1ccc2c(c1)OCCO2 [Compound 691] : 3 to 10 µM

Recorded result, COc1ccc(C(=O)CCCCC(=O)N[C@H](CN2CCCC2)[C@H](O)c2ccc(OCc3ccccc3)cc2)cc1 [Compound 706] , IC50: ≤ 0.1 µM

Entry COc1ccc(CNC(=O)N[C@H](CN2CC[C@H](O)C2)[C@H](O)c2ccc(OCCCCF)cc2)cc1 [Compound 498] , IC50 reported as ≤ 0.1 µM
